target: recombinant human His-ATG7 enzyme (Homo sapiens (Human)); experiment: ATG7 Enzyme Assay (HTRF/FRET, ATG3-GST and Flag-Gabarap)
pIC50: −log10 of the molar value.
Record form. Attribute: pIC50. Fill in for each entry.

Study these solved cases before continuing.
compound | recorded_result
CC(O)CSc1nn([C@@H]2O[C@H](COS(N)(=O)=O)[C@@H](O)[C@H]2O)c2ncnc(N)c12 (single isomer, unassigned) [Compound I-55a] | 7.00 to 7.30
Nc1ncnc2c1c(C1CC1)nn2[C@@H]1O[C@H](COS(N)(=O)=O)[C@@H](O)[C@@H]1F | < 6.30
Nc1ncnc2c1c(SC(F)(F)F)nn2[C@@H]1O[C@H](COS(N)(=O)=O)[C@@H](O)[C@@H]1F | 7.00 to 7.30
Nc1ncnc2c1c(Sc1ccc(C(F)(F)F)cn1)nn2[C@@H]1O[C@H](COS(N)(=O)=O)[C@@H](O)[C@@H]1F | 7.00 to 7.30

Record pIC50 for all entries; do not skip any.
1. Nc1ncnc2c1c(Sc1ccccc1)nn2[C@@H]1O[C@H](COS(N)(=O)=O)[C@@H](O)[C@H]1O
2. NC(=S)c1nn([C@@H]2O[C@H](COS(N)(=O)=O)[C@@H](O)[C@H]2O)c2ncnc(N)c12
3. CCc1nn([C@@H]2O[C@H](COS(N)(=O)=O)[C@@H](O)[C@H]2O)c2ncnc(N)c12

OUT:
1. 7.30 to 7.70
2. 7.00 to 7.30
3. 6.30 to 7.00

====

Please respond with reported inhibition at 0.123 µM for every item in the list.
molecular target: recombinant human His-ATG7 enzyme (Homo sapiens (Human), UniProt O95352); assay: ATG7 Enzyme Assay (HTRF/FRET, ATG3-GST and Flag-Gabarap); assay type: biochemical; conditions: Concentration 0.123 μM; read-out: Percent Inhibition
Sequence (O95352 whole entry): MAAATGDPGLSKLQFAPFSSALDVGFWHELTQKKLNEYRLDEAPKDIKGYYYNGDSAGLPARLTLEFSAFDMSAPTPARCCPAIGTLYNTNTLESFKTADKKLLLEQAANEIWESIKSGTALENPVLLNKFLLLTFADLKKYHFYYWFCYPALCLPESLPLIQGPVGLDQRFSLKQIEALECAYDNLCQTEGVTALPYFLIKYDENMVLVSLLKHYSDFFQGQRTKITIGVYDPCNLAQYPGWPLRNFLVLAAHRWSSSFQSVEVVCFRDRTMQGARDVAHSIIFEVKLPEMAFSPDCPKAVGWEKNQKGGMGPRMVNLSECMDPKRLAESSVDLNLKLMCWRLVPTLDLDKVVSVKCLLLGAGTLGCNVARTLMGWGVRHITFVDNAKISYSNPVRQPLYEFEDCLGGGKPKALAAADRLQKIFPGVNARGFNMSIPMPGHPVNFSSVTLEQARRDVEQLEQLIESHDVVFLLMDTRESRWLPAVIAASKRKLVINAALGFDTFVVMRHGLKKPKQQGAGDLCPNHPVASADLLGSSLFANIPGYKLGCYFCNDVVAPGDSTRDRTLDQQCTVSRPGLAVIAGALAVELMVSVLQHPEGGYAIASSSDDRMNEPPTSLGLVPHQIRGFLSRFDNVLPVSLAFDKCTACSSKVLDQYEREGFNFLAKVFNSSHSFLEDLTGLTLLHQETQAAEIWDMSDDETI
Give bare numbers, in %.

compound | inhibition at 0.123 µM [%]
Nc1ncnc2c1c(SC1CCCCC1O)nn2[C@@H]1O[C@H](COS(N)(=O)=O)[C@@H](O)[C@H]1O (mixture of isomers) | 48

Below is a list of compounds. For each, state its recorded inhibition at 0.123 µM.
1. Nc1ncnc2c1c(SCc1ccc(Cl)o1)nn2[C@@H]1O[C@H](COS(N)(=O)=O)[C@@H](O)[C@H]1O
2. Nc1ncnc2c1c(SCc1ccccc1)nn2[C@@H]1O[C@H](COS(N)(=O)=O)[C@@H](O)[C@@H]1F
3. Nc1ncnc2c1c(Sc1ccc(Cl)cc1Cl)nn2[C@@H]1O[C@H](COS(N)(=O)=O)[C@@H](O)[C@H]1O
4. Nc1ncnc2c1c(SC1CCCC1O)nn2[C@@H]1O[C@H](COS(N)(=O)=O)[C@@H](O)[C@H]1O (mixture of isomers)

OUT:
1: 83; 2: 75; 3: 70; 4: 75

Entry under test: CC(O)CSc1nn([C@@H]2O[C@H](COS(N)(=O)=O)[C@@H](O)[C@H]2O)c2ncnc(N)c12 (single isomer, unassigned) [Compound I-55b] . Its inhibition at 0.123 µM was 68

====

target: recombinant human His-ATG7 enzyme (Homo sapiens (Human)); experiment: ATG7 Enzyme Assay (HTRF/FRET, ATG3-GST and Flag-Gabarap); type: biochemical; details: Concentration 0.111 μM; read-out: Percent Inhibition
Recorded inhibition at 0.111 µM determines the label; the label ranges are lower band: < 50%; central band: ≥ 50% and < 80%; upper band: ≥ 80%

See these solved cases before continuing.
structure_as_smiles | class
COCCSc1nn([C@@H]2O[C@H](COS(N)(=O)=O)[C@@H](O)[C@@H]2F)c2ncnc(N)c12 | central band
CCN(CC)CCSc1nn([C@@H]2O[C@H](COS(N)(=O)=O)[C@@H](O)[C@@H]2F)c2ncnc(N)c12 | lower band
Nc1ncnc2c1c(Sc1ccc(Cl)cn1)nn2[C@@H]1O[C@H](COS(N)(=O)=O)[C@@H](O)[C@@H]1F | upper band
Cc1ccc(Sc2nn([C@H]3C[C@H](O)[C@@H](COS(N)(=O)=O)O3)c3ncnc(N)c23)c(F)c1 | central band
Nc1ncnc2c1c(I)nn2[C@H]1C[C@H](O)[C@@H](COS(N)(=O)=O)O1 | central band
Nc1ncnc2c1c(OC(F)F)nn2[C@H]1C[C@H](O)[C@@H](COS(N)(=O)=O)O1 | central band

IN: Category of Nc1ncnc2c1c(SC1CCC1)nn2[C@@H]1O[C@H](COS(N)(=O)=O)[C@@H](O)[C@@H]1F :
OUT: upper band

IN: Each molecule maps to one class by inhibition at 0.111 µM. Which class for Nc1ncnc2c1c(Sc1cn[nH]c1)nn2[C@@H]1O[C@H](COS(N)(=O)=O)[C@@H](O)[C@H]1O ?
OUT: upper band

IN: Input Nc1ncnc2c1c(SCc1ccccc1)nn2[C@H]1C[C@H](O)[C@H](COS(N)(=O)=O)O1 ; output its category
OUT: lower band

IN: Lab note: sort Nc1ncnc2c1c(Sc1nccs1)nn2[C@H]1C[C@H](O)[C@@H](COS(N)(=O)=O)O1 into the matching inhibition at 0.111 µM band.
OUT: central band

IN: Consider CN(C)C(=O)CSc1nn([C@H]2C[C@H](O)[C@@H](COS(N)(=O)=O)O2)c2ncnc(N)c12 . To which inhibition at 0.111 µM class does it belong?
OUT: lower band

IN: Hi, small favor: classify Cn1ccnc1CSc1nn([C@@H]2O[C@H](COS(N)(=O)=O)[C@@H](O)[C@@H]2F)c2ncnc(N)c12 by its inhibition at 0.111 µM when you get a moment.
OUT: lower band
